- test-target: BCRP (Homo sapiens)
- Sequence (Q9UNQ0 whole entry): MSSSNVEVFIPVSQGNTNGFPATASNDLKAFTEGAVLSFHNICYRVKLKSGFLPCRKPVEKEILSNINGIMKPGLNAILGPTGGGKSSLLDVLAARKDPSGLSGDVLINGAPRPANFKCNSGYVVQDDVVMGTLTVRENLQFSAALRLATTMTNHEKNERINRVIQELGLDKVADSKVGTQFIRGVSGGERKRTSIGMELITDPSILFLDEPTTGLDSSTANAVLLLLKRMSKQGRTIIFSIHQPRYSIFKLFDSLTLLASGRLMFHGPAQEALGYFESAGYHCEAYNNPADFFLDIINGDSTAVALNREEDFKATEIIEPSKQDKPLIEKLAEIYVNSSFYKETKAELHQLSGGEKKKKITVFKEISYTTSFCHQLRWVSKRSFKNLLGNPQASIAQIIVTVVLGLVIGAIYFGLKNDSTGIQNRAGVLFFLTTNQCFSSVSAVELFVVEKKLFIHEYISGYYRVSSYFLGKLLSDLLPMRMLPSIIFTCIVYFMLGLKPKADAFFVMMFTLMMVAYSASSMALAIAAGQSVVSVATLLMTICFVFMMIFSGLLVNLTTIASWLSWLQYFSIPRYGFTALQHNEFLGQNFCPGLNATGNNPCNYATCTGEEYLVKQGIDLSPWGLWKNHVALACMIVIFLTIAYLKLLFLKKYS
- procedure-summary: BCRP inhibition: steady-state mitoxantrone accumulation in BCRP-expressing PLB985 cells (flow cytometry)
- stated-conditions: BCRP IC50, mitoxantrone 7 μM, PLB985 BCRP cells; mean±SD, at least n=3 (11 a n=2)
pIC50: −log10 of the molar value.
Assign Condition met to entries whose pIC50 meets or exceeds 5; assign Condition not met to the rest.

Some entries whose results are on file:
Could you please find out whether CC(CF)NCC(O)COc1ccccc1C(=O)CCc1ccccc1 (stereo not shown) [Compound 16 b] has pIC50 that meets 5 or exceeds it?
Condition met

Could you please find out whether COc1ccc(C(=O)CCc2ccccc2)c(OCCNC(=O)C2CCCN2)c1 (stereo not shown) [Compound 10 b] has pIC50 that meets 5 or exceeds it?
Condition met

Could you please find out whether COc1ccc(C(=O)CCc2ccccc2)c(OCC(O)CN2CC(=O)N3CCCC3C2=O)c1 (stereo not shown) [Compound 6 b] has pIC50 that meets 5 or exceeds it?
Condition met

Could you please find out whether O=C(CCc1ccccc1)c1ccccc1OCC(O)CNC(=O)C1CCCN1 (stereo not shown) [Compound 5 a] has pIC50 that meets 5 or exceeds it?
Condition not met

Could you please find out whether COc1ccc(C(=O)CCc2ccccc2)c(OCC(O)CNC(=O)C2CCCN2)c1 (stereo not shown) [Compound 5 b] has pIC50 that meets 5 or exceeds it?
Condition met

Could you please find out whether O=C(CCc1ccccc1)c1ccccc1OCC(O)CN1CC(=O)N2CCCC2C1=O (stereo not shown) [Compound 6 a] has pIC50 that meets 5 or exceeds it?
Condition met

***
Could you please find out whether O=C(CCc1ccccc1)c1ccccc1OCCNC(=O)C1CCCN1 (stereo not shown) [Compound 10 a] has pIC50 that meets 5 or exceeds it?
Condition met

Could you please find out whether O=C(CCc1ccccc1)c1ccccc1OCCN1CC(=O)N2CCCC2C1=O (stereo not shown) [Compound 11 a] has pIC50 that meets 5 or exceeds it?
Condition not met

Could you please find out whether COc1ccc(C(=O)CCc2ccccc2)c(OCCN2CC(=O)N3CCCC3C2=O)c1 (stereo not shown) [Compound 11 b] has pIC50 that meets 5 or exceeds it?
Condition met

Could you please find out whether CC(NCC(O)COc1ccccc1C(=O)CCc1ccccc1)C(F)F (stereo not shown) [Compound 16 c] has pIC50 that meets 5 or exceeds it?
Condition met
